Target: E. coli arabinose binding protein variant C64A/K301C, fluorophore conjugate (Escherichia coli, UniProt P02924, C87A/K324C)
Construct: initiator methionine (N); Gly-Ser-Gly-(His)n or Gly-Ser-(His)n (n = 5, 6 or 10) (C); made in house; host or cells: E. coli BL21-DE3
Sequence (P02924 24-329 C87A/K324C): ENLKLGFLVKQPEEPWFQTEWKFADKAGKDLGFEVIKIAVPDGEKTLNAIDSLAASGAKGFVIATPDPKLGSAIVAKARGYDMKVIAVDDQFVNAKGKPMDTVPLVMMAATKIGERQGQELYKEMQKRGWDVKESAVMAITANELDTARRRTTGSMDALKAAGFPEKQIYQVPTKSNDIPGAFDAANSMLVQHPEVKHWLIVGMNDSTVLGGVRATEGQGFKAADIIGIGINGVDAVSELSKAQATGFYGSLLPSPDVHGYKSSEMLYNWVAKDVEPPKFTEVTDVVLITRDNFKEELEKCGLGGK
Experiment: Fluorimetric titration of fluorophore conjugates
Conditions: NBD conjugate, allosteric site
property: Kd
Write down the value, and be sure its unit follows.

Query string: Please supply the value of reported Kd for the item OC1OC[C@H](O)[C@H](O)[C@H]1O (stereo partly shown)
Result string: 31 µM

* * *

Biological target: E. coli sulfate binding protein variant R134C, fluorophore conjugate (Escherichia coli, UniProt P0AG78, R153C)
Construct: Gly-Ser-Gly-(His)n or Gly-Ser-(His)n, n=5, 6 or 10 (C); initiator methionine (N); made in house; host or cells: E. coli strain BL21-DE3
Sequence (P0AG78 20-329 R153C): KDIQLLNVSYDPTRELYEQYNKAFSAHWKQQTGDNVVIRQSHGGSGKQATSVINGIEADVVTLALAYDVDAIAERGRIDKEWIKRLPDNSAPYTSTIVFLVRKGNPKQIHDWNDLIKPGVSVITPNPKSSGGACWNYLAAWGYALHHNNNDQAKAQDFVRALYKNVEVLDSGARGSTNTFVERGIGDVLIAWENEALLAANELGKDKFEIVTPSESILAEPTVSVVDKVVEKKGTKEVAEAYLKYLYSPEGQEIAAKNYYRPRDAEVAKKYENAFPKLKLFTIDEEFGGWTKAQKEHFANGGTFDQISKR
Test: Fluorimetric titration of fluorophore conjugates
Conditions: NBD conjugate, R134C, ligand sulfate
property: Kd (µM)
Quick reminder: number only, in µM, skip the unit.

Query string: Please supply the value of reported Kd for the item O=S(=O)(O)O [sulfate]
Result string: 22.4

* * *

Biological target: E. coli sulfate binding protein variant R134C, fluorophore conjugate (Escherichia coli, UniProt P0AG78, R153C)
Construct: Gly-Ser-Gly-(His)n or Gly-Ser-(His)n, n=5, 6 or 10 (C); initiator methionine (N); made in house; host or cells: E. coli strain BL21-DE3
Test: Fluorimetric titration of fluorophore conjugates
Details: JPW4039 conjugate, R134C, ligand sulfate
property: Kd (µM)
Quick reminder: number only, in µM, skip the unit.

Query string: Please supply the value of reported Kd for the item O=S(=O)(O)O [sulfate]
Result string: 7.5

* * *

Target: E. coli dipeptide binding protein variant T44C, fluorophore conjugate (Escherichia coli, UniProt P23847, T72C)
Construct: initiation methionine (N); Gly-Ser-Gly-(His)n or Gly-Ser-(His)n (C); made in house; host or cells: E. coli BL21-DE3
Sequence (P23847 29-535 T72C): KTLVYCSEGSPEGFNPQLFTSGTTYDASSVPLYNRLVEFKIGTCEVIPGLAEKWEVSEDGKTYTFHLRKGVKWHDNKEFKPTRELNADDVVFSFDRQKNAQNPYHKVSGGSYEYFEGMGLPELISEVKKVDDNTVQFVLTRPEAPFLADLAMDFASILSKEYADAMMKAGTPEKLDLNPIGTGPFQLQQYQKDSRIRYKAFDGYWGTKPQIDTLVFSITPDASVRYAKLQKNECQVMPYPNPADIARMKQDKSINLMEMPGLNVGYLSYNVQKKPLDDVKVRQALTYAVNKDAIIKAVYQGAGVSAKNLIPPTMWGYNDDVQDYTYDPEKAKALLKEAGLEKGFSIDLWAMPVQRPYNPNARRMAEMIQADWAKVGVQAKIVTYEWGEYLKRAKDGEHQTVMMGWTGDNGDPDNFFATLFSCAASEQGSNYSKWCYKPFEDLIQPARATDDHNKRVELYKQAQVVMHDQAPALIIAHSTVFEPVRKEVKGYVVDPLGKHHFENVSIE
Experiment: Fluorimetric titration of fluorophore conjugates
Conditions: NBD conjugate, peristeric site
property: Kd (nM)
Quick reminder: number only, in nM, skip the unit.

Query string: Please supply the value of reported Kd for the item CC(C)C[C@H](NC(=O)CN)C(=O)O [Gly-Leu, Gly-Leu dipeptide]
Result string: 6

* * *

Target: E. coli arabinose binding protein variant C64A/F23C (Escherichia coli, UniProt P02924, C87A/F46C)
Construct: initiator methionine (N); Gly-Ser-Gly-(His)n or Gly-Ser-(His)n (n = 5, 6 or 10) (C)
Sequence (P02924 24-329 F46C/C87A): as the sequence (P02924 24-329 C87A/K324C) above, with F23C, C301K counted along it
Assay: Arabinose affinity by tryptophan fluorescence
Description: Molecular Cloning. […] All clones and mutations were confirmed by nucleotide sequencing. Cysteine point mutations were introduced by the PCR overlap method (Ho et al., Gene 77:51-59, 1989). Mutant proteins typically expressed as well as the wild type protein. […] The effect on dissociation constants is determined not only by the attachment site, but also by the nature of the attached fluorophore, as illustrated for arabinose BP. […]
property: pKd
Schema: pKd number; meaning minus log10 of the concentration expressed in molar units.

Query string: Please supply the value of reported pKd for the item OC1OC[C@H](O)[C@H](O)[C@H]1O (stereo partly shown) [arabinose]
Result string: 5.30
